Hello, the source for this data is patent US20220002314A1, in case you need it.

molecular target: Human α2δ-1 subunit of Cav2.2 calcium channel (Homo sapiens); test: biochemical; type: binding; settings: read-out: α2δ-1 binding
Sequence (P54289 25-1103): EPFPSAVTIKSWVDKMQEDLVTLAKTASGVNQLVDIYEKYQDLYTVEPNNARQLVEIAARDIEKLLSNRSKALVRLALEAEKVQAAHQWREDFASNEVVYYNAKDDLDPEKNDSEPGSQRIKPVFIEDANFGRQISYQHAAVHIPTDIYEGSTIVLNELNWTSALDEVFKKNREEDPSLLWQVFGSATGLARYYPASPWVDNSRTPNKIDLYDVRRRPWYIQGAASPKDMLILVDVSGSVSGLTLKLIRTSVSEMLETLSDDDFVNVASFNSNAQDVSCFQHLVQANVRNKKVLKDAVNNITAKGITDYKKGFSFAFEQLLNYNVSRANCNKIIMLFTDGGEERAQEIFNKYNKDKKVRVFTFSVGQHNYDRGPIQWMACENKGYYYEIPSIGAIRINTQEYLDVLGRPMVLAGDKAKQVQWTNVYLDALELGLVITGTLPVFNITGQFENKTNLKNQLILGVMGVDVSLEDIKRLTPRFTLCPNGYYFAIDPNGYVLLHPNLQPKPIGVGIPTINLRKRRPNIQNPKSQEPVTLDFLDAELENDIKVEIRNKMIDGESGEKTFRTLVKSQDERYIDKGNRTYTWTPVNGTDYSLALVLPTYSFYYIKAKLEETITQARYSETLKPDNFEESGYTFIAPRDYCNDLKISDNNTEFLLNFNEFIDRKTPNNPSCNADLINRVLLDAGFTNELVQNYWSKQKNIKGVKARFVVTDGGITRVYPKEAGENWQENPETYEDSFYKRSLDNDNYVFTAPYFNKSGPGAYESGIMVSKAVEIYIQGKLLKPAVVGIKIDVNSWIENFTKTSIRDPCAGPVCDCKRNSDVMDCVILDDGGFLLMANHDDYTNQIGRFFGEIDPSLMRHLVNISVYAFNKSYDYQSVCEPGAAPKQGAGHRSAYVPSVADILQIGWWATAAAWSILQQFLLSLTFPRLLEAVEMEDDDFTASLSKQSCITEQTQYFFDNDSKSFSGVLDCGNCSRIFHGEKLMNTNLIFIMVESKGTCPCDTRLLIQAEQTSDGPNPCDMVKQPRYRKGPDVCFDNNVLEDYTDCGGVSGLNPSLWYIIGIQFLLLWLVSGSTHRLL
Provide the recorded Ki for the entries that follow.

Observed Ki, Human α2δ-1 subunit of Cav2.2 calcium channel (Homo sapiens), COCCn1c(C(CC(C)C)N2C[C@@H](C)N[C@@H](C)C2)nc2ccccc2c1=O (some centres unmarked) [Example 114] : > 5 µM

Observed Ki, Human α2δ-1 subunit of Cav2.2 calcium channel (Homo sapiens), CCCC(c1nc2c(Br)c(N(Cc3cccc(OC)c3)C(=O)OC(C)(C)C)ccc2c(=O)n1CC)N1C[C@@H](C)N[C@@H](C)C1 (some centres unmarked) [Example 162] : 0.5 to 5 µM

Observed Ki, Human α2δ-1 subunit of Cav2.2 calcium channel (Homo sapiens), CCCC(c1nc2cc(C(=O)O)ccc2c(=O)n1CC)N1C[C@@H](C)N[C@@H](C)C1 (some centres unmarked) [Example 179] : 0.5 to 5 µM

Observed Ki, Human α2δ-1 subunit of Cav2.2 calcium channel (Homo sapiens), CCCC(c1nc2cc(-c3ccnc(CNC)c3)ccc2c(=O)n1C)N1C[C@@H](C)N[C@@H](C)C1 (some centres unmarked) [Example 136] : 0.5 to 5 µM

Observed Ki, Human α2δ-1 subunit of Cav2.2 calcium channel (Homo sapiens), CCCC(c1nc2cc(C(=O)O)ccc2c(=O)n1C)N1C[C@@H](C)N[C@@H](C)C1 (some centres unmarked) [Example 178] : 0.5 to 5 µM

Observed Ki, Human α2δ-1 subunit of Cav2.2 calcium channel (Homo sapiens), CCC[C@@H](c1nc2ccc(Br)cc2c(=O)n1CC)N1CCN[C@@H](CCC(=O)O)C1 [Example 107] : > 5 µM

Observed Ki, Human α2δ-1 subunit of Cav2.2 calcium channel (Homo sapiens), CCC[C@H](c1nc2ccc(Br)cc2c(=O)n1CC)N1CCN[C@@H](CCC(=O)O)C1 [Example 108] : > 5 µM

Observed Ki, Human α2δ-1 subunit of Cav2.2 calcium channel (Homo sapiens), CCCC(c1nc2ccccc2c(=O)n1C)N1CCNCC1 (centres unmarked) [Example 80] : 0.5 to 5 µM
